assay: oral pharmacokinetics (plasma, brain, CSF); assay type: in vivo; details: Sprague Dawley, rat, plasma, po, 10 mg/kg, Sprague Dawley rats, per os 10 mg/kg
Kindly return Met if reported bioavailability is no lower than 80%; return Not met if it is lower.

COMPOUND	QUALITATIVE LABEL
CC(C)C(=O)N1CCCC12CCNC2=O (stereo not shown) [RZ-405]	Met
O=C1NCCC12CCNCC2 [RG-603]	Not met
CC(C)(C)OC(=O)N1CCCC2(CCNC2=O)C1 (single isomer, unassigned) [RE-1]	Not met
O=C1NCCC12CCCCN2 (stereo not shown) [RG-601]	Met
O=C1NCCC12CCCNC2 (stereo not shown) [RB-1, 2,7-diazaspiro[4.5]decan-1-one]	Not met
CC(=O)N1CCC2(CCNC2=O)CC1 [RG-621]	Met
